Target: Prostaglandin G/H synthase 1 (Ovis aries, UniProt P05979)
Sequence (P05979 whole entry): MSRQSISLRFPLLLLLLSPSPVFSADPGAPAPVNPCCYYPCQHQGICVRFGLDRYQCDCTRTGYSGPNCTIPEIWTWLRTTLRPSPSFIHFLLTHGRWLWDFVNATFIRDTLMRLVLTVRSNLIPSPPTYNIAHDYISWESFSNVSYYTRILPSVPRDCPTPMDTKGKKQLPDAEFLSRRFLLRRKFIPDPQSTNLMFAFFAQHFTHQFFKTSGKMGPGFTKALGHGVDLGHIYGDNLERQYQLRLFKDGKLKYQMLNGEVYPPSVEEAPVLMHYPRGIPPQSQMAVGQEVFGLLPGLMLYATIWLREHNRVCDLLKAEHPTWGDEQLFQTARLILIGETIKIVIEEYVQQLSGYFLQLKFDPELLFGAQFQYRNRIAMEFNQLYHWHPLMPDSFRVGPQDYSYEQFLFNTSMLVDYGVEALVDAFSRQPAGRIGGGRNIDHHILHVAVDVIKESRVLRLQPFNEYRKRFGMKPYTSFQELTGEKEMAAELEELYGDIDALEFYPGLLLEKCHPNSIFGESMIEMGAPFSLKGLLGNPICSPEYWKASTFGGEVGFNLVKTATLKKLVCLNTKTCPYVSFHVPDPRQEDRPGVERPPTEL
pIC50: −log10 of the molar value.
Literature pIC50 values, system: Prostaglandin G/H synthase 1 (Ovis aries, UniProt P05979).
READOUT_NAME: pIC50

1. CSc1cc(-c2ccc(F)cc2)c(-c2ccc(S(C)(=O)=O)cc2)[nH]1	4.44
2. CS(=O)(=O)c1ccc(-c2[nH]c(Cl)c(Br)c2-c2ccc(F)cc2)cc1	4.36
3. COc1ccc(C2=C(c3ccc4c(c3)oc(=O)n4C)COC2=O)cc1	7.21
4. COc1ccc(-c2c(-c3ccc(F)cc3)noc2CC(=O)O)cc1	5.12
5. CC(=O)c1c(C)cc2cccc(OCc3ccccc3)c2c1O	4.82
6. COc1ccc(NC(=O)Nc2ccc(S(C)(=O)=O)cc2)cc1	4.65
7. Cc1ccc(Nc2nc(-c3ccc([N+](=O)[O-])cc3)nc3sc4c(c23)CCCC4)cc1	5.09
8. C/C=C/c1cc(OC)c2c(c1)[C@@H](C)[C@H](c1ccc(OC)c(OC)c1)O2	3.65
9. NS(=O)(=O)c1ccc(-n2nc(C(F)(F)F)cc2C2CCN(CCCCO[N+](=O)[O-])CC2)cc1	4.70
10. CS(=O)(=O)c1ccc(N2CCN(c3ccc(F)cc3)CC2)cc1	4.10
11. OC1(c2nc(-c3ccncc3)c(-c3ccc(F)cc3)[nH]2)CCCC1	5.52
12. NS(=O)(=O)c1ccc(-n2nc(-c3ccc(Cl)cc3O)nc2-c2ccccc2O)cc1	4.59
13. COc1ccc(-c2noc(CC(=O)NCCCCCCCCCCCCNC(=O)Cc3onc(-c4ccc(OC)cc4)c3-c3ccc(OC)cc3)c2-c2ccc(OC)cc2)cc1	5.15
14. O=C1/C(=C\c2cn(CCCOc3cc(O)c4c(=O)cc(-c5ccccc5)oc4c3)c3ccccc23)c2ccccc2N1c1c(Cl)cccc1Cl	3.94
15. COc1ccnc(Nc2nn3c(C)cc(C)nc3c2C#N)c1	5.07
16. CC(C)(C)c1cc(-c2noc(NC#N)n2)cc(C(C)(C)C)c1O	4.29

====

pIC50: −log10 of the molar value.
// molecules with reported pIC50 on Prostaglandin G/H synthase 1 (Ovis aries, UniProt P05979), multi-publication
READOUT_NAME: pIC50

1. NS(=O)(=O)c1ccc(-n2nc(C(F)(F)F)cc2-c2ccc(Br)cc2)cc1	4.89
2. CC(C)c1cc(-c2ccccc2)c(-c2ccc(S(C)(=O)=O)cc2)c(=O)o1	3.47
3. NS(=O)(=O)c1ccc(-n2nc(C(F)(F)F)cc2-c2ccc(Br)cc2)cc1CO	3.64

====

pIC50: −log10 of the molar value.
The entries that follow carry pIC50 values tested on Prostaglandin G/H synthase 1 (Ovis aries), drawn from several published reports.
READOUT_NAME: pIC50

1. COc1ccc2c(c1)c(CC(=O)N[C@@H](CO)CC(C)C)c(C)n2C(=O)c1ccc(Cl)cc1	< 4.20
2. COc1ccc(/C=C(/C(=O)c2ccc(Cl)cc2)C(=O)C(F)(F)F)cc1OC	< 4.30
3. CCCCCCCC/C(=C(\c1ccccc1)c1ccc(S(C)(=O)=O)cc1)c1ccccc1	< 4.00
4. COc1ccc(-c2noc(CC(=O)NCc3ccc(CNC(=O)Cc4onc(-c5ccc(OC)cc5)c4-c4ccc(OC)cc4)cc3)c2-c2ccc(OC)cc2)cc1	< 4.30
5. CCCCCCCCC(Sc1nc(Cl)cc(Nc2cccc(C)c2C)n1)C(=O)O (stereo not drawn)	< 5.00
6. CS(=O)(=O)c1ccc(-c2cc(Sc3ccccc3)sc2-c2ccc(F)cc2)cc1	< 3.52
7. Cc1ccc(C2=C(c3ccc(F)cc3)COC2=O)cc1	< 4.60
8. CCCCCC[C@H](Sc1nc(Cl)cc(Nc2ccc(-c3ccc(C#N)cc3)cc2)n1)C(=O)O	< 5.00
9. CCCC/C(=C\c1cc(OCc2ccc(F)cc2)ccc1OCc1ccc(C(F)(F)F)cc1)C(=O)O	< 5.00
10. O=C(O)Cc1cccc(C(=O)c2ccc(Cl)cc2)c1[N+](=O)[O-]	< 3.00
11. CCCCCCC(Sc1nc(Cl)cc(NCCc2ccccc2)n1)C(=O)O (stereo not drawn)	< 5.00
12. CS(=O)(=O)c1ccc(C2=C(c3ccc(S(N)(=O)=O)cc3)C(=O)OC2)cc1	< 4.00
13. CS(=O)(=O)c1ccc(-c2c(-c3ccccc3)cc(-c3ccc(F)cc3)oc2=O)cc1	< 4.00
14. Cc1ccc(-c2cc(C(F)(F)F)nn2-c2ccc(S(N)(=O)=O)c(CO)c2)cc1	3.56
15. CC(=O)c1nnn(-c2ccc(F)cc2)c1C	5.14
16. Cc1ccc(C2SCC(=O)N2c2ccc(OCC(=O)Nc3ccc(Cl)cc3)cc2)cc1 (stereo not drawn)	4.87
17. CS(=O)(=O)c1ccc(-c2[nH]ccc2-c2ccc(F)cc2)cc1	3.43
18. CC(Oc1cc(=O)oc2ccccc12)C(=O)Nc1ccc(N2CCOCC2=O)cc1 (racemic)	5.34
19. O=C(/C=C/c1ccc(O)c(O)c1)OC1CC(O)(C(=O)O)CC(O)C1OC(=O)/C=C/c1ccc(O)c(O)c1 (stereo not drawn)	5.23
20. CC(=O)Nc1nc(-c2cc(C(C)(C)C)c(O)c(C(C)(C)C)c2)ns1	< 4.70
21. CS(=O)(=O)c1ccc(-c2cc(C(=O)O)c3ccccc3n2)cc1	4.87
22. COc1ccc(-c2cscc2-c2ccc(S(C)(=O)=O)cc2)cc1	< 3.00
23. O=C1OCC(c2ccc(F)cc2)=C1c1ccccc1	< 4.60
24. O=C(c1ccccc1)n1cc(/C=N/c2ccc(C(F)(F)F)cc2)c2ccccc21	< 4.00
25. O=C1OCC(c2ccc(F)cc2)=C1c1ccc(Br)cc1	< 4.60
26. Nc1nnc(S)s1	< 4.30
27. COC(=O)[C@H](Cc1ccccc1)Nc1nc(Cl)nc(Nc2ccc(N3CCOCC3=O)cc2)n1	< 5.00
28. CCOC(=O)CC1=C/C(=C\c2ccc(-c3ccccc3)cc2)c2ccc(F)cc21	5.96

====

pIC50: −log10 of the molar value.
Header: pIC50 / Prostaglandin G/H synthase 1 (Ovis aries) / multiple publications
READOUT_NAME: pIC50

1) COc1ccc(C2=NOC3(Cc4ccccc4C3=O)C2c2ccc(S(C)(=O)=O)cc2)cc1OC (stereo not given)	4.92
2) NS(=O)(=O)c1ccc(N2N=C(c3ccco3)CC2c2ccco2)cc1 (stereo not given)	5.02
3) CSc1nc2ccccc2n1-c1csc(NCC(C)=O)n1	4.93
4) CO/N=[N+](/[O-])c1ccc(-c2cc(C(F)(F)F)nn2-c2ccc(S(C)(=O)=O)cc2)cc1	4.98
5) CC(C)(C)c1cc(/C=C2\SC(NO)=NC2=O)cc(C(C)(C)C)c1O	4.28
6) CS(=O)(=O)Nc1ccc(C2=C(c3ccc(F)cc3)C(=O)OC2)cc1	5.00
7) COc1ccc(NC(=O)C(C)Oc2cc(=O)oc3ccccc23)cc1 (racemic)	5.65
8) C/C(=N\NC(N)=S)c1nnn(-c2ccc(C(=O)O)cc2)c1C	4.94
9) CS(=O)(=O)c1ccc(-c2cscc2-c2ccc(F)cc2)cc1	3.17
10) CSc1nc2ccccc2n1-c1csc(NC/C(C)=N/N=c2\scc(-c3ccc(C)cc3)n2-c2ccccc2)n1	4.88
11) Cc1ccc(S(=O)(=O)n2cc(C(=O)C(=O)N[C@H](Cc3cnc[nH]3)C(=O)N[C@H](CCC(=O)O)C(=O)O)c3ccccc32)cc1	3.82
12) CS(=O)(=O)c1ccc(-c2nc(-c3ccc(Cl)cc3)[nH]c2-c2ccccc2)cc1	4.99
13) CS(=O)(=O)c1ccc(-c2cc(O)ccc2-c2ccccc2)cc1	3.39
14) O=C1CCOCC1C1CC(=O)N(c2ccccc2)C1=O (stereo not given)	4.31
15) CS(=O)(=O)c1ccc(C(=O)c2c[nH]c3ccccc23)cc1	4.57
16) COc1ccc2c(c1)c(CC(=O)N[C@@H](CO)c1ccccc1)c(C)n2C(=O)c1ccc(Cl)cc1	4.33
17) CC(=O)N(C1=NN(C(C)=O)C(c2cn(-c3ccccc3)nc2-c2ccc(Br)cc2)S1)c1ccccc1 (stereo not given)	4.14
18) Cc1nc(C)c(CN2CCN(C(=O)c3cc4cc(Cl)ccc4n3Cc3ccc(Cl)cc3)CC2)nc1C	6.51
19) CC(=O)OC(C)O/N=[N+](/[O-])c1ccc(-c2cc(C(F)(F)F)nn2-c2ccc(S(C)(=O)=O)cc2)cc1 (stereo not given)	4.77
20) N#CSC[C@@H]1C[C@@](O)(c2ccccc2)C[C@H](c2ccccc2)O1 (relative stereo)	5.55
21) Cc1nc2ccccc2c(=O)n1NS(=O)(=O)c1ccccc1	4.52
22) COc1cccc(-c2nc(-c3ccccc3O)n(-c3ccc(S(N)(=O)=O)cc3)n2)c1O	4.70
23) O=[N+]([O-])c1ccc(/C=C/c2cc(O)c(O)c(O)c2)cc1	4.76
24) COc1ccc(-c2noc(CC(=O)NCCNC(=O)Cc3onc(-c4ccc(OC)cc4)c3-c3ccc(OC)cc3)c2-c2ccc(OC)cc2)cc1	7.89
25) Cc1ccc(N2C(=O)c3ccccc3SC2c2ccc(S(C)(=O)=O)cc2)cc1 (stereo not given)	4.79
26) CCOC(=O)[C@H](OCc1cnnn1[C@@H](Cc1ccccc1)C(=O)OC)[C@@H](OCc1cnnn1[C@@H](Cc1ccccc1)C(=O)OC)C(=O)OCC	4.05
27) Cc1ccc(/C=C(/C(=O)c2ccc(S(C)(=O)=O)cc2)c2ccccc2)cc1	4.98
28) CS(=O)(=O)c1ccc(-c2cc(-c3ccc(C(F)(F)F)cc3)oc(=O)c2-c2ccccc2)cc1	4.60
29) CSc1nc2ccccc2n1-c1csc(NCC(=O)c2ccc(Cl)cc2)n1	5.09
